Task for the reader: assign each of the following compounds its reported EC50.
target: human sphingosine-1-phosphate receptor 1 (S1P1) (Homo sapiens); test: Inhibition of cAMP production (HTRF cAMP HiRange), S1P1 CHO-K1 cells; type: cell-based; conditions: inhibition of cAMP production, S1P1; read-out: hS1P1 CAMP pEC50 (converted)
Sequence (P21453 whole entry): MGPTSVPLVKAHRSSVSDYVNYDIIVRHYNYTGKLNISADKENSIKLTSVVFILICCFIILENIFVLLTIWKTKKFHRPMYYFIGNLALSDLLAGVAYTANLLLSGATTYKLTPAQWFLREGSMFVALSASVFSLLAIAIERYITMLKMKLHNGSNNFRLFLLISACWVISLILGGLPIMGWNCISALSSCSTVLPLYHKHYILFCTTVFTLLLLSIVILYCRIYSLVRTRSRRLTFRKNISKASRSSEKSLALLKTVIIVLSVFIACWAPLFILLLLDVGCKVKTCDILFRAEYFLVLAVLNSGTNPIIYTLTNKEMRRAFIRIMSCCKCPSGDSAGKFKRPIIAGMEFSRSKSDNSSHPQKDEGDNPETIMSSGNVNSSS

Enquiry: Supply recorded EC50 for CC(C)(CO)Cn1nnc2cc(-c3noc(-c4ccccc4Cl)n3)ccc21 here.
Return: > 316 nM

Enquiry: Return EC50 for the following compound: CC(C)n1nnc2cc(-c3noc(-c4cccc5c4CCC5=O)n3)ccc21
Return: < 316 nM

Enquiry: Answer with the recorded EC50 of CC(C)n1nnc2cc(-c3c[nH]c(-c4ccccc4)c3)ccc21 only.
Return: < 316 nM

Enquiry: # return recorded EC50 for input CC(C)(O)Cn1nnc2cc(-c3nc(-c4cocn4)no3)ccc21
Return: > 316 nM

Enquiry: Let me know recorded EC50 for CCC1(CC)CC(=O)c2cc(-c3nc(-c4cncc(F)c4)no3)ccc2O1 , thanks.
Return: < 316 nM

Enquiry: Specify EC50 for CCC1(CC)CC(=O)c2cc(-c3nc(-c4ccsc4)no3)ccc2N1 and stop.
Return: < 316 nM

Enquiry: Supply reported EC50 belonging to this compound: CC(C)n1ccc2cc(-c3nc(-c4ccccc4F)ns3)ccc21
Return: > 316 nM

Enquiry: Return EC50 for the following compound: CCC1(CC)CC(=O)c2cc(-c3nc(-c4ccnc(C(=O)NC)c4)no3)ccc2O1
Return: > 316 nM

Enquiry: Look up EC50 of Cc1ccsc1-c1nc(-c2ccc3c(c2)nnn3CC(C)(C)CO)no1 and report it.
Return: < 316 nM

Enquiry: Given CCC1(CC)CC(=O)c2cc(-c3nc(-c4ccc(F)nc4)no3)ccc2O1 , respond with its EC50.
Return: > 316 nM

Enquiry: Please give measured EC50 of the following entry: O=C1CCc2cc(-c3nc(-c4cccnc4)no3)ccc2N1
Return: > 316 nM

Enquiry: For the compound CCC1(CC)CC(=O)c2cc(-c3nc(-c4cc[nH]c4)no3)ccc2O1 , give its reported EC50.
Return: < 316 nM

Enquiry: Dear colleague, please send me the reported EC50 for CCc1ccccc1-c1nc(-c2ccc3c(c2)nnn3C(C)(C)CO)no1 when you can.
Return: > 316 nM

Enquiry: Give the reported EC50 for this compound. Cc1ccncc1-c1noc(-c2ccc3c(c2)NC(=O)CN3)n1
Return: > 316 nM

Enquiry: Consider the compound Cn1cnc2cc(-c3nnc(-c4ccc(NCC(F)F)c(C#N)c4)o3)ccc21 and give its recorded EC50.
Return: > 316 nM

Enquiry: Complete the entry with EC50 for N#Cc1cc(-c2nnc(-c3ccc4[nH]c(=O)oc4c3)o2)ccc1NCC(F)F
Return: < 316 nM

Enquiry: Specify reported EC50 for the compound shown: COc1ccc(-c2noc(-c3ccc4c(c3)nnn4CC(C)(C)O)n2)c(C)c1
Return: < 316 nM

Enquiry: Entry CCC1(CC)CC(=O)c2cc(-c3ncc(-c4cccnc4)cn3)ccc2O1 needs its EC50 filled in; supply it.
Return: > 316 nM

Enquiry: Look up EC50 of COc1ncccc1-c1nc(-c2ccc3c(c2)nnn3C(C)C)no1 and report it.
Return: < 316 nM

Enquiry: Quick one: give measured EC50 for CC(C)n1ccc2cc(-c3noc(-c4ccncc4F)n3)ccc21
Return: < 316 nM

Enquiry: Report measured EC50; entry is CC(C)n1nnc2cc(-c3nc(-c4ccccc4N)co3)ccc21
Return: < 316 nM

Enquiry: Item CC(C)n1ccc2cc(-c3noc(-c4ccccc4Br)n3)ccc21 : provide EC50
Return: < 316 nM

Enquiry: Supply recorded EC50 for COc1ccccc1-c1csc(-c2ccc3c(ccn3C(C)C)n2)n1 here.
Return: > 316 nM
